Record form. Attribute: IC50. Fill in for each entry.
Target: Nonstructural protein 1 (Influenza A virus)
Sequence (Q194T2 whole entry): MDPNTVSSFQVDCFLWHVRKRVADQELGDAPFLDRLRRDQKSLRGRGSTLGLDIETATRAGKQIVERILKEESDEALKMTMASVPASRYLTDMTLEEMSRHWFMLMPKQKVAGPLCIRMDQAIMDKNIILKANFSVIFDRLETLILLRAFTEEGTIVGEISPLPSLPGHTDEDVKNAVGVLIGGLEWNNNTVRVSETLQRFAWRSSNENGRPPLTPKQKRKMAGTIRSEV
Type: functional, Influenza A virus (A/California/07/2009(H1N1))
The source made the active and inactive calls.

# returns recorded IC50 (system: Nonstructural protein 1 (Influenza A virus)) for `CCN(c1ccccc1)S(=O)(=O)c1ccc(C(=O)N(CCCN(C)C)c2nc3c(C)cccc3s2)cc1`
> 100 µM (active)

Which measured IC50 belongs to `Clc1ccc(NNc2ccnc3cc(Cl)ccc23)cc1` , tested on Nonstructural protein 1 (Influenza A virus)?
34.6 µM (active)

Return IC50 measured with Nonstructural protein 1 (Influenza A virus) given this compound: `C=CC(=O)Nc1cccc(Oc2ccnc(Nc3ccc(N4CCN(C)CC4)cc3)n2)c1`
23.1 µM (active)

Form entry - test system: Nonstructural protein 1 (Influenza A virus); read-out: IC50; compound: `CN1C(=S)N(c2cccnc2)C(=O)/C1=C\c1ccc(N(C)C)cc1`
> 100 µM (active)

Find IC50 (Nonstructural protein 1 (Influenza A virus)) for the entry C/C(=N\NC(=O)C1COc2ccccc2O1)c1ccccn1 (centres undefined)
5.62 µM (active)

Test system Nonstructural protein 1 (Influenza A virus); read-out IC50; what value for `Cc1ccccc1C1=C/C(=C(\SS/C(C(=O)c2ccc(OCC(=O)O)c(Cl)c2Cl)=C2\C=C(c3ccccc3C)SS2)C(=O)c2ccc(OCC(=O)O)c(Cl)c2Cl)SS1` ?
16.1 µM (active)

API: value(readout= IC50, system= Nonstructural protein 1 (Influenza A virus), query= `CN1CCN(c2cc(-c3cc(O)c4ncccc4c3)ccn2)CC1` )
9.85 µM (active)

// lookup IC50 | system=Nonstructural protein 1 (Influenza A virus) | key= `COc1cccc(C=NNC(=O)c2ccncc2)c1O`
6.26 µM (active)

Param readout= IC50; system= Nonstructural protein 1 (Influenza A virus); entry= `COc1cc(/C=N/NC(=O)c2cncc(Br)c2)cc([N+](=O)[O-])c1O` ; returns value.
4.26 µM (active)

---

Target: Aminopeptidase N (Plasmodium falciparum FcB1/Columbia, UniProt O96935)
Sequence (O96935 whole entry): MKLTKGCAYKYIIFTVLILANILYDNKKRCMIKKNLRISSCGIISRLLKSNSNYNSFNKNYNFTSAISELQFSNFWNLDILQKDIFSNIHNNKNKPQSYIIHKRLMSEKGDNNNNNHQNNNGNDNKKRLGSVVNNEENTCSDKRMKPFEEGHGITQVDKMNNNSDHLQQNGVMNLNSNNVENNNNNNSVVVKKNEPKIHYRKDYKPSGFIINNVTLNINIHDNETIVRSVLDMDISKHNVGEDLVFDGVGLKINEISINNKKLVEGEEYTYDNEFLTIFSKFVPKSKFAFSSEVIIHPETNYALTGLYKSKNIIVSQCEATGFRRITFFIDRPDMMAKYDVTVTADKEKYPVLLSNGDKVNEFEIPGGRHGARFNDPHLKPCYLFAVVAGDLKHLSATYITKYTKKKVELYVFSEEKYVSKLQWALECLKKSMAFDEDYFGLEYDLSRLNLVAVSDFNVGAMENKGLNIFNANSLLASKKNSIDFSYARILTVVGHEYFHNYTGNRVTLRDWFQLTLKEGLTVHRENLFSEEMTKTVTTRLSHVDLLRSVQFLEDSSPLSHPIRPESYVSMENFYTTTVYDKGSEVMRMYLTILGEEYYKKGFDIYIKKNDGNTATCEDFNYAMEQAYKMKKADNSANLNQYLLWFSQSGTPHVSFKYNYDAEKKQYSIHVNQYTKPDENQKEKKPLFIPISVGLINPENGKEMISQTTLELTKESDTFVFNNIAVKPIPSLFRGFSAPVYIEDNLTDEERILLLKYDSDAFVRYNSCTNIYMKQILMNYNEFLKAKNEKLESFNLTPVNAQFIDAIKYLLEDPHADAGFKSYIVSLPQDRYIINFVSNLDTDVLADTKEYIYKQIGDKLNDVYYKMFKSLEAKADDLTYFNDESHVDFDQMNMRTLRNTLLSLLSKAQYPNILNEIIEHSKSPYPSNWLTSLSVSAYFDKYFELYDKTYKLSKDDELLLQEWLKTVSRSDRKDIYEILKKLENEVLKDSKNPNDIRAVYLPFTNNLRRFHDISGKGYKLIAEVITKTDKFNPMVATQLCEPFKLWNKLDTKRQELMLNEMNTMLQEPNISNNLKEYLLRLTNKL
Test: P. falciparum M1AAP inhibitors, biochemical, fluorogenic H-Leu-NHMec substrate, 1536-well (AID 1445)
Parameters: species or system Plasmodium falciparum 3D7, 3D7
Active and inactive are the calls of the source.
RECORDED METRIC: IC50

Which IC50 value belongs to `Cc1ccc(NC(S)=NNc2ccc([N+](=O)[O-])cc2S(=O)(=O)Nc2ccccc2C(=O)O)cc1C` ?
29.5 µM (active)

Record request: IC50 value, item `Cc1cc(C(=O)N/N=C/c2cc(Cl)cc([N+](=O)[O-])c2O)[nH]n1`
52.3 µM (active)

Need IC50 of `N#C/C(=C\c1ccc(O)c([N+](=O)[O-])c1)c1nc2ccccc2s1` , thanks.
33.9 µM (active)

Suppose we examine the compound `CCN1CCN(Cc2c(O)c(Cl)cc3c(C)cc(=O)oc23)CC1` ; what IC50 value has been reported?
38.3 µM (active)

Need IC50 of `O=C(N/N=C/c1ccc(-c2ccc(Cl)c(C(=O)O)c2)o1)c1cc2c(ccc3ccccc32)o1` , thanks.
9.45 µM (active)

Query: IC50; subject: CCCCCCC[C@H](N)[C@H](O)C(=O)N(C)[C@@H](CC[S+](C)[O-])C(=O)N[C@@H](Cc1ccc(O)cc1)C(=O)N[C@@H](Cc1ccc(O)cc1)C(=O)O (some centres undefined)
16.8 µM (active)

Give its IC50 value. Item: `O=C1NC(=O)C(=NNc2cc([N+](=O)[O-])ccc2O)C(=O)N1`
11.4 µM (active)

# lookup: IC50 of `C/C(=N\Nc1nc(C(=O)O)cs1)c1ccccc1`
34.2 µM (active)

Query (compound): `Cc1ccc2c(c1)c1nnc(SCC(=O)Nc3ccccc3C(F)(F)F)nc1n2CC(=O)O` ; field requested: IC50
18.6 µM (active)

---

Assay: off-target signal loss in HeLa-CEM21 co-culture – HeLa F-luc CTL cells, cherry-picked, counter-screen for HIV-1 Env fusion inhibitor project, dose response (AID 652040);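 also: potency for signal decrease marking cytotoxic or nonspecific inhibition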
Type: functional, cell-based
Activity calls are given as the source filed them.
RECORDED METRIC: AC50

Reported AC50 for CCN(CC)S(=O)(=O)c1ccc(NC2c3ccccc3C(=O)N2Cc2ccc3c(c2)OCO3)cc1 (centres undefined) : what is it?
3.71 µM (active)

Tell me the measured AC50 of COc1ccc(CC(N)c2csc(NC(=O)Nc3ccccc3Oc3ccccc3)n2)cc1 (centres undefined) , please.
1.72 µM (active)

Could you tell me which AC50 is on file for `COc1ccc2sc(N(CCCN(C)C)C(=O)c3ccc(S(=O)(=O)N4CCc5ccccc5C4)cc3)nc2c1` ?
8.3 µM (active)

Recorded AC50 of `C(=C\c1ccccc1)/CN1CCN(c2ncnc3c2oc2ccccc23)CC1` , please.
25.9 µM (active)

---

Biological target: UniProtKB P9WQ81
Sequence (P9WQ81 whole entry): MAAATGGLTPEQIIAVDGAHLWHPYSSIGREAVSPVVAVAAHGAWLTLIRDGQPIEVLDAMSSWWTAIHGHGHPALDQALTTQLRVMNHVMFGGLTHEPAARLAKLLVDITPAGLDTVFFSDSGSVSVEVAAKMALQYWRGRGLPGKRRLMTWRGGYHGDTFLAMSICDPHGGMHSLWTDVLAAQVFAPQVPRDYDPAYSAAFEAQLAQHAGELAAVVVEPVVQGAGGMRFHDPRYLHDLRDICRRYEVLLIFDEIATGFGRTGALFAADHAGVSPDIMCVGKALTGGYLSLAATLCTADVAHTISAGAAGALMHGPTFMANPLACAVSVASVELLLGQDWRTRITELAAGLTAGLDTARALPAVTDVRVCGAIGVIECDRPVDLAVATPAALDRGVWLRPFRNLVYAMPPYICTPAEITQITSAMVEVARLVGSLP
Assay: Mycobacterium tuberculosis BioA enzyme inhibitor Measured in Biochemical System Using Plate Reader - 2163-02_Inhibitor_Dose_CherryPick_Activity.
Assay type: functional, Mycobacterium tuberculosis UT205
Activity calls are given as the source filed them.
Kindly state AC50 for each of the entries shown.

Hello, I am looking for reported AC50 with UniProtKB P9WQ81 for `Cc1ccc(Cc2c(C)nc3nc(SCC(=O)NCCCN4CCCCC4)nn3c2C)cc1` . Could you help?
11.1 µM (active)

API: value(readout= AC50, system= UniProtKB P9WQ81, query= `Cc1ccc(-c2nnc(N3CCN(C(=O)CSc4nc[nH]n4)CC3)c3ccccc23)cc1` )
1.07 µM (active)

Report AC50 for `O=C(c1ccccc1F)N1CC[C@@H]2[C@H](CO)Nc3ccc(Br)cc3[C@@H]21` tested on UniProtKB P9WQ81.
1.81 µM (active)

API: value(readout=AC50, system=UniProtKB P9WQ81) for record CC(Oc1ccc2ccc(=O)oc2c1)C(=O)N1CCOCC1 (centres undefined)
6.85 µM (active)

---

Assay: cytotoxicity toward NIH3T3 fibroblasts, dose response, counter-screen, cell-based, ATP luminescence, mouse fibroblasts (AID 2010);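 also: cells exposed to compound for about 90 hours before reading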
Assay type: functional
The source made the active and inactive calls.
RECORDED METRIC: EC50

Which value of EC50 has been reported for `CN=C(S)N=CNOCc1ccc(Cl)cc1Cl` in the records?
7.02 µM (active)

Which value of EC50 has been reported for CN1Cc2cccc3c2C(Cc2ccccc2S3)C1 (stereo not given) in the records?
> 30 µM (not active)

What value of EC50 has been recorded for this entry: COc1ccc(N2CCN(C(CNC(=O)Oc3ccccc3)c3cccnc3)CC2)cc1 (stereo not given)
> 30 µM (not active)

Give the measured EC50 of `CN1C(=O)/C(=C\c2ccccc2F)Sc2ccc(C(=O)NC3CCN(Cc4ccccc4)CC3)cc21` .
> 60 µM (not active)

Given O=C(Nc1nc(-c2ccccc2)cs1)C1CCCN(S(=O)(=O)c2ccccc2)C1 (stereo not given) , state its recorded EC50.
> 30 µM (not active)

Give the measured EC50 of `CCOC(=O)c1cnc(-n2nc(C)cc2C)nc1NCCc1ccccc1` .
> 30 µM (not active)

Suppose we examine the molecule `CC1(C)Cc2c(c(N3CCOCC3)nc3sc4c(NCc5ccccc5)nnnc4c23)CS1` ; what EC50 value has been reported?
> 60 µM (not active)

Report EC50 for `Cc1noc2ncnc(Sc3ccc(Br)cc3)c12` please.
> 60 µM (inconclusive)

Consider the molecule `Cc1ccc(C)c(Nc2c([N+](=O)[O-])cc(C(=O)N3CC(=O)Nc4ccccc43)cc2[N+](=O)[O-])c1` and give its measured EC50.
> 60 µM (inconclusive)

Recorded EC50 of `Cc1ccc(CN2CCN(/N=C/c3ccc(Cl)c([N+](=O)[O-])c3)CC2)cc1` , please.
> 60 µM (not active)

---

What IC50 was measured for each of the following?
Molecular target: Sentrin-specific protease 8 (Homo sapiens, UniProt Q96LD8);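 also: luminescence read-out of SENP8 inhibition, dose-response confirmation following an ultra-high-throughput screen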
Sequence (Q96LD8 whole entry): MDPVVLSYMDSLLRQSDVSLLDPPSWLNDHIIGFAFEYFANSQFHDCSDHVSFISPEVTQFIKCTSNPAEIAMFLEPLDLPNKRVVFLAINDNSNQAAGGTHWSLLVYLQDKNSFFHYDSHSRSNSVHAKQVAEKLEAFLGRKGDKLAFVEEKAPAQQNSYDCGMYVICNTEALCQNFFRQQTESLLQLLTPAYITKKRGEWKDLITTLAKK
Format: functional
Calls of active or inactive are those of the source.

Dear colleague, I am looking for the recorded IC50 of the following molecule: `Nn1c(SCc2ccccc2)nc2c(cnn2-c2ccccc2)c1=O`
> 100 µM (inactive)

Suppose we examine the molecule `O=C(Cn1cc(SCc2ccc(F)cc2)c2ccccc21)N1CCOCC1` ; what IC50 value has been reported?
23.2 µM (active)

What value of IC50 has been reported for the following molecule? `Nc1c(C(=O)Nc2cccc(C(=O)O)c2)sc2nc3c(cc12)CCCC3`
31 µM (active)

Recorded IC50 of `Clc1ccc(C2=CSC3=Nc4cccc5cccc(c45)N23)cc1` , please.
2.04 µM (active)
